Tested on: 777334-354-R2-J4-PDC tumor spheroids with HUVEC/MSC, viability
Experiment: Anticancer human tumor 777334-354-R2-J4-PDC patient-derived pancreatic adenocarcinoma cell line growth inhibition [GQUAD]
Conditions: second compound 0.316 µM; first compound 1 µM; stronger effect = lower value
Collected viability, T/C values appear next to each entry.
The reply should be a number in %, with the unit left off.

Known viability, T/C results, listed for orientation:
CC1COCCN1c1cc(C2(S(C)(=N)=O)CC2)nc(-c2ccnc3[nH]ccc23)n1 (stereo not drawn) + CN(C)c1ccc(Nc2c3ccc(NC(=O)CCN4CCCC4)cc3nc3cc(NC(=O)CCN4CCCC4)ccc23)cc1 : 82.9
C=CC(=O)N1CCN(c2nc(=O)n(-c3c(C)ccnc3C(C)C)c3nc(-c4c(O)cccc4F)c(F)cc23)C(C)C1 (stereo not drawn) + CN(C)c1ccc(Nc2c3ccc(NC(=O)CCN4CCCC4)cc3nc3cc(NC(=O)CCN4CCCC4)ccc23)cc1 : 113
COc1ncnc(C2CC2)c1-c1ncc2cnn(Cc3ccc(-c4nc(C(F)(F)F)cn4C(C)C)cc3)c2n1 + Cc1[nH]c2ccc(F)cc2c1-c1nc2c3cccnc3c3ncccc3c2[nH]1 : 85.4
CC(C)n1c(=O)n(C)c2cnc3cc(F)c(-c4ccc(OCCCN5CCCCC5)nc4)cc3c21 + Cc1[nH]c2ccc(F)cc2c1-c1nc2c3cccnc3c3ncccc3c2[nH]1 : 110

Exercise: Look up and state reported viability, T/C for COc1cc(C2c3cc4c(cc3C(OC3OC5COC(C)OC5C(O)C3O)C3COC(=O)C23)OCO4)cc(OC)c1O (stereo not drawn) + CN(C)c1ccc(Nc2c3ccc(NC(=O)CCN4CCCC4)cc3nc3cc(NC(=O)CCN4CCCC4)ccc23)cc1
Solution: 70.3

Exercise: Supply viability, T/C value. Item: CC(C)n1c(=O)n(C)c2cnc3cc(F)c(-c4ccc(OCCCN5CCCCC5)nc4)cc3c21 + Cc1cnc(CNC(=O)c2c(=O)c3ccc(N4CCCN(C)CC4)nc3n3c2sc2ccccc23)cn1
Solution: 84.7

Exercise: Return viability, T/C for the following compound: CC1COCCN1c1cc(C2(O)CC3CCC(C2)O3)c2cnn(-c3ccn[nH]3)c2n1 (stereo not drawn) + CN(C)c1ccc(Nc2c3ccc(NC(=O)CCN4CCCC4)cc3nc3cc(NC(=O)CCN4CCCC4)ccc23)cc1
Solution: 45.8

Exercise: Please report the measured viability, T/C for COc1cc(C2c3cc4c(cc3C(OC3OC5COC(C)OC5C(O)C3O)C3COC(=O)C23)OCO4)cc(OC)c1O (stereo not drawn) + Cc1cnc(CNC(=O)c2c(=O)c3ccc(N4CCCN(C)CC4)nc3n3c2sc2ccccc23)cn1
Solution: 72.7

###

As shown below, each of these molecules has a reported IC50 value.
System: 777334-354-R2-J4-PDC tumor spheroids with HUVEC/MSC, viability
Experiment: Anticancer human tumor 777334-354-R2-J4-PDC cell line growth inhibition [GQUAD];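 note: spheroids exposed to compounds for 7 days before readout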
Conditions: curve of first compound; second compound 1 µM

CC1COCCN1c1cc(-c2ccnn2C)c2ccnc(-c3ccn[nH]3)c2n1 (centres undefined) + Cc1[nH]c2ccc(F)cc2c1-c1nc2c3cccnc3c3ncccc3c2[nH]1 : 479 nM

Exercise: Look up IC50 of C=CCn1c(=O)c2cnc(Nc3ccc(N4CCN(C)CC4)cc3)nc2n1-c1cccc(C(C)(C)O)n1 + Cc1[nH]c2ccc(F)cc2c1-c1nc2c3cccnc3c3ncccc3c2[nH]1 and report it.
Solution: 710 nM

Exercise: Give the value of IC50 reported for the following: CC(=O)O[C@H]1C(=O)[C@@]2(C)[C@H]([C@H](OC(=O)c3ccccc3)[C@]3(O)C[C@H](OC(=O)[C@H](O)[C@@H](NC(=O)c4ccccc4)c4ccccc4)C(C)=C1C3(C)C)[C@]1(OC(C)=O)CO[C@@H]1C[C@@H]2O + Cc1[nH]c2ccc(F)cc2c1-c1nc2c3cccnc3c3ncccc3c2[nH]1
Solution: 240 nM

Exercise: Using the record for COc1cccc2c1C(=O)c1c(O)c3c(c(O)c1C2=O)CC(O)(C(=O)CO)CC3OC1CC(N)C(O)C(C)O1 (centres undefined) + Cc1cnc(CNC(=O)c2c(=O)c3ccc(N4CCCN(C)CC4)nc3n3c2sc2ccccc23)cn1 , state its measured IC50.
Solution: 869 nM
